Assay: In vitro stability (D/H exchange, enantiomerization, degradation) in human plasma
Type: in vitro ADME
Conditions: human, plasma (K3EDTA), 37° C., calculated half-life, read-out: t1/2 degradation (converted)
result_type: half-life (h)

compound: CCc1ccc(C(=O)COc2ccc(CC3SC(=O)NC3=O)cc2)nc1 (single isomer, unassigned; (+))
result_type: half-life
recorded_measurement: 184
//
compound: [2H]C1(Cc2ccc(OCC(=O)c3ccc(CC)cn3)cc2)SC(=O)NC1=O (racemic)
result_type: half-life
recorded_measurement: 184
